Tested on: MET
Test: MET biochemical kinase assay
Design: species or system human; concentration or dose not given beside the values
Kind request: treat 30% as inclusive, so Met Kinase % Inhibition at 30% or higher is Fulfilled, anything lower is Not fulfilled.

CCOC(=O)CCc1c(C(=O)OCC)[nH]c(C=C2C(=O)Nc3ccc(S(=O)(=O)NC)cc32)c1CC(=O)OCC	Not fulfilled
O=C1Nc2c(Br)cc(Br)cc2C1=Cc1ccc2ccccc2c1O	Fulfilled
CCOc1cc(C=C2C(=O)Nc3ccc(Br)c(C)c32)ccc1O	Fulfilled

Determine whether measured Met Kinase % Inhibition meets or exceeds 30% for `Cc1cc(C=C2C(=O)Nc3ccc(Br)c(C)c32)ccc1O`
Fulfilled

And `O=C1Nc2c(Br)cc(Br)cc2C1=Cc1ccc(F)cc1Cl` ?
Fulfilled

And `CNS(=O)(=O)c1ccc2c(c1)C(=Cc1ccccc1Br)C(=O)N2` ?
Not fulfilled

And `O=C1Nc2ccc(S(=O)(=O)Nc3ccc(C(F)(F)F)cc3)cc2C1=Cc1ccc(Br)o1` ?
Fulfilled

And `CCOc1ccc(C=C2C(=O)Nc3ccc(S(=O)(=O)N4CCOCC4)cc32)cc1OC` ?
Not fulfilled

And `CCCCN(CCCC)c1ccc(C=C2C(=O)Nc3ccc(I)cc32)cc1` ?
Fulfilled

And `Cc1c(Br)ccc2c1C(=Cc1cccs1)C(=O)N2` ?
Not fulfilled

And `CC(C)(C)c1cc(C=C2C(=O)Nc3c(Br)cc(Br)cc32)cc(C(C)(C)C)c1OCc1ccccc1` ?
Not fulfilled

And `Cc1cc(C=C2C(=O)Nc3ccc(S(=O)(=O)Nc4ccc(C(F)(F)F)cc4)cc32)cc(C(C)(C)C)c1O` ?
Fulfilled

And `Cc1cc(C=C2C(=O)Nc3ccc(CCCl)cc32)cc(C(C)(C)C)c1O` ?
Fulfilled

And `Cc1[nH]c(C=C2C(=O)Nc3ccc(CCCl)cc32)c(Br)c1Br` ?
Fulfilled

And `CNS(=O)(=O)c1ccc2c(c1)C(=Cc1c(OC)ccc3ccccc13)C(=O)N2` ?
Fulfilled

And `O=C1Nc2ccc(S(=O)(=O)Nc3ccc(C(F)(F)F)cc3)cc2C1=Cc1cccc(F)c1O` ?
Fulfilled
